Ki tested on c-Met (Homo sapiens, UniProt P08581): recorded values
Sequence (P08581 25-1390): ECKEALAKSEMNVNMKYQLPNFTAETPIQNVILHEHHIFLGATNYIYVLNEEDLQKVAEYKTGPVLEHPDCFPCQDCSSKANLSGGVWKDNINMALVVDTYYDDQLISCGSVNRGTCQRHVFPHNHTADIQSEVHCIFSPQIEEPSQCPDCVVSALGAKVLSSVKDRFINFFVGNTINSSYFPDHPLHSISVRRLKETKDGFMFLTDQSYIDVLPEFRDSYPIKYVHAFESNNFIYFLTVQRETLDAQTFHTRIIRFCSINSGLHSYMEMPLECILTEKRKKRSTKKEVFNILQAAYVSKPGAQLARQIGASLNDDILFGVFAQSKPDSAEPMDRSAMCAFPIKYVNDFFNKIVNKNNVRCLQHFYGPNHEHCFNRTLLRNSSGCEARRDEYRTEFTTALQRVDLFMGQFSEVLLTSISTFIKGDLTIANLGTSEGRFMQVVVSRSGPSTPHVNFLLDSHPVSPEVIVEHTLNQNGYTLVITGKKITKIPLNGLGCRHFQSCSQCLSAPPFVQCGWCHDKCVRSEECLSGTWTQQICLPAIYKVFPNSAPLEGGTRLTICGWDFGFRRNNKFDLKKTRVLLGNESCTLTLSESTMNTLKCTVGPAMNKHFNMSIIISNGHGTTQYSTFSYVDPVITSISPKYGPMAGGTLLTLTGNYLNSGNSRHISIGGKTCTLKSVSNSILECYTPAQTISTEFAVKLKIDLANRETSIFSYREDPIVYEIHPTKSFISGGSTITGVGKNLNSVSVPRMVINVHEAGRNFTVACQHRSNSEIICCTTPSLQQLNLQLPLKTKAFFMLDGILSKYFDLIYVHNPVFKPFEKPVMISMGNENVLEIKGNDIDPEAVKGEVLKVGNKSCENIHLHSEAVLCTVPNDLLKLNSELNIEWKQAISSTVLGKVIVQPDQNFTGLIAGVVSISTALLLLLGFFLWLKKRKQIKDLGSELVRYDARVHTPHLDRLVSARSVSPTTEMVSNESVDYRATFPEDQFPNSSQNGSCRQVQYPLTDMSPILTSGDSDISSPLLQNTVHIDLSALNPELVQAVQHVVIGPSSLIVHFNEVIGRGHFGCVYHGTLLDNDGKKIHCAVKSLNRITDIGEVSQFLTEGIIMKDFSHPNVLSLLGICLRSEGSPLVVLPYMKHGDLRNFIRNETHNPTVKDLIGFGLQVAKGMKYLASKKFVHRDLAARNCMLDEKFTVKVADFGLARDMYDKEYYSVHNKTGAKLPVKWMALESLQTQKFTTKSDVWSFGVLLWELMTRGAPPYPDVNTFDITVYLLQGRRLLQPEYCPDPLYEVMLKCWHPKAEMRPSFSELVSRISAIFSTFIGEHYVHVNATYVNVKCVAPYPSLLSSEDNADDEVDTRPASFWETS

Some solved entries appear below for comparison.
Compound	Ki
CN1CCN(c2ccc(-c3cnc4[nH]cc(-c5oncc5-c5cccc(F)c5F)c4c3)cc2)CC1 [Compound 70, methanesulfonate]	< 200 nM
Oc1cccc(-c2cnc3[nH]cc(-c4oncc4-c4cccc(F)c4F)c3c2)c1	< 200 nM
COc1cccc(-c2cnoc2-c2c[nH]c3ncccc23)c1OC	1000 to 12500 nM
Cc1noc(-c2c[nH]c3ncc(-c4ccc(N5CCN(C)CC5)cc4)cc23)c1-c1cccc(F)c1F	< 200 nM
OCc1cnc2[nH]cc(-c3oncc3-c3cccc(F)c3F)c2c1	200 to 1000 nM

Hi! What's the reported Ki for c1cncc(-c2cnoc2-c2c[nH]c3ncccc23)c1 on c-Met (Homo sapiens, UniProt P08581)?
1000 to 12500 nM

Hi! What's the reported Ki for Fc1cccc(-n2cnnc2-c2c[nH]c3ncc(-c4ccc(N5CCC(N6CCCC6)CC5)nc4)cc23)c1F on c-Met (Homo sapiens, UniProt P08581)?
< 200 nM

Hi! What's the reported Ki for CN(C)c1ccc2c(-c3oncc3-c3cccc(F)c3F)n[nH]c2n1 on c-Met (Homo sapiens, UniProt P08581)?
1000 to 12500 nM

Hi! What's the reported Ki for CN(C)Cc1ccc(-c2cnc3[nH]cc(-c4oncc4-c4cccc(F)c4F)c3c2)cc1 on c-Met (Homo sapiens, UniProt P08581)?
< 200 nM

# credit: patent US7446199B2
